Test system: CFPAC-1
protocol_summary: Antiproliferative activity against human CFPAC-1 cells incubated for 72 hrs by MTT assay
Assay type: functional, cell-based
test_conditions: CFPAC-1, 72 h
pIC50: −log10 of the molar value.
measurement_kind: pIC50

# smiles_record, result_value
rows = [
    ("N#Cc1ccc2cc(C#N)c3sccc3c2c1", 5.09),
    ("CC(C)CNC(=O)c1cc2ccccc2c2ccccc12", 4.16),
    ("N#Cc1cc2ccc(N3CCNCC3)cc2c2ccccc12", 5.21),
    ("N#C/C(=C\\c1ccc(F)cc1)c1cccs1", 4.47),
    ("CC(C)CNC(=O)c1cc2ccccc2c2ccsc12", 4.01),
    ("N#Cc1cc2ccc(N3CCCCC3)cc2c2ccsc12", 4.59),
    ("N#Cc1cc2ccccc2c2ccsc12", 4.25),
]

====

Test system: CFPAC-1
protocol_summary: Antiproliferative activity against human CFPAC-1 cells incubated for 72 hrs by MTT assay
Format: functional, cell-based
test_conditions: CFPAC-1, 72 h

# smiles_record, IC50
measured = [
    ("N#C/C(=C\\c1ccccc1)c1ccccc1", "88.2 µM"),
    ("N#Cc1ccc2cc(C#N)c3ccccc3c2c1", "8.2 µM"),
    ("N#C/C(=C\\c1ccc(C#N)cc1)c1cccs1", "52.4 µM"),
    ("N#Cc1cc2ccccc2c2ccccc12", "80 µM"),
    ("N#Cc1cc2ccc(F)cc2c2ccsc12", "51 µM"),
    ("N#Cc1cc2ccc(F)cc2c2ccccc12", "13.2 µM"),
    ("N#C/C(=C\\c1ccc(C#N)cc1)c1ccccc1", "6.7 µM"),
    ("CC(C)CNc1ccc2cc(C#N)c3sccc3c2c1", "18.6 µM"),
    ("CC(C)CNc1ccc2cc(C#N)c3ccccc3c2c1", "35.5 µM"),
    ("CN(C)CCCNC(=O)c1cc2ccccc2c2ccsc12", "17.5 µM"),
    ("N#Cc1cc2ccc(N3CCCCC3)cc2c2ccccc12", "> 100 µM"),
    ("CN(C)CCCNC(=O)c1ccc2cc(C(=O)NCCCN(C)C)c3sccc3c2c1", "6.59 µM"),
    ("N#C/C(=C\\c1ccc(F)cc1)c1ccccc1", "46.9 µM"),
    ("N#C/C(=C\\c1ccccc1)c1cccs1", "97.8 µM"),
    ("CC(C)CNC(=O)c1ccc2cc(C(=O)NCC(C)C)c3sccc3c2c1", "> 100 µM"),
    ("N#Cc1cc2ccc(N3CCNCC3)cc2c2ccsc12", "3.66 µM"),
]

====

System: HFF
protocol_summary: Cytotoxicity against HFF cells assessed as reduction in cell viability incubated for 72 hrs by MTT assay
Format: cell-based
test_conditions: Homo sapiens
Mark each entry condition met if its IC50 sits below 40 µM, and condition not met for all others.

# smiles_record, tested_target, label_class
records = [
    ("N#Cc1ccc2cc(C#N)c3ccccc3c2c1", "HFF", "condition met"),
    ("CC(C)CNC(=O)c1cc2ccccc2c2ccsc12", "HFF", "condition not met"),
    ("N#Cc1cc2ccc(N3CCCCC3)cc2c2ccsc12", "HFF", "condition not met"),
    ("N#Cc1cc2ccc(N3CCNCC3)cc2c2ccsc12", "HFF", "condition met"),
    ("N#Cc1cc2ccccc2c2ccccc12", "HFF", "condition not met"),
    ("N#C/C(=C\\c1ccccc1)c1cccs1", "HFF", "condition not met"),
    ("N#C/C(=C\\c1ccc(F)cc1)c1cccs1", "HFF", "condition not met"),
    ("N#Cc1cc2ccc(F)cc2c2ccsc12", "HFF", "condition met"),
    ("CC(C)CNC(=O)c1cc2ccccc2c2ccccc12", "HFF", "condition not met"),
    ("CC(C)CNc1ccc2cc(C#N)c3ccccc3c2c1", "HFF", "condition not met"),
]

====

Below, each of the compounds is paired with its reported pIC50 value.
Test system: HFF
protocol_summary: Cytotoxicity against HFF cells assessed as reduction in cell viability incubated for 72 hrs by MTT assay
Assay type: cell-based
test_conditions: Homo sapiens
pIC50: −log10 of the molar value.
measurement_kind: pIC50

# smiles_record, measurement_kind, readout_qualifier, result_value
data = [
    ("CN(C)CCCNC(=O)c1cc2ccccc2c2ccsc12", "pIC50", "=", 4.62),
    ("N#C/C(=C\\c1ccc(F)cc1)c1ccccc1", "pIC50", "=", 4.28),
    ("N#Cc1ccc2cc(C#N)c3sccc3c2c1", "pIC50", "=", 5.29),
    ("CN(C)CCCNC(=O)c1ccc2cc(C(=O)NCCCN(C)C)c3sccc3c2c1", "pIC50", "=", 5.23),
    ("N#Cc1cc2ccccc2c2ccsc12", "pIC50", "=", 4.07),
    ("N#Cc1cc2ccc(F)cc2c2ccccc12", "pIC50", "=", 5.46),
    ("N#Cc1cc2ccc(N3CCNCC3)cc2c2ccccc12", "pIC50", "=", 4.62),
    ("N#C/C(=C\\c1ccccc1)c1ccccc1", "pIC50", "=", 4.03),
    ("N#C/C(=C\\c1ccc(C#N)cc1)c1ccccc1", "pIC50", "=", 5.22),
    ("CC(C)CNc1ccc2cc(C#N)c3sccc3c2c1", "pIC50", "=", 4.01),
    ("N#C/C(=C\\c1ccc(C#N)cc1)c1cccs1", "pIC50", "<", 4.00),
    ("N#Cc1cc2ccc(N3CCCCC3)cc2c2ccccc12", "pIC50", "<", 4.00),
    ("CC(C)CNC(=O)c1ccc2cc(C(=O)NCC(C)C)c3sccc3c2c1", "pIC50", "=", 6.13),
]
